target: recombinant USP30 (amino acids 57-517 of the human sequence) (Homo sapiens (Human), UniProt Q70CQ3); experiment: In vitro USP30 biochemical assay (Ubiquitin-Rhodamine substrate); settings: 1.5 nM recombinant USP30, 25 nM Ubiquitin-Rhodamine, fluorescence
Sequence (Q70CQ3 57-517): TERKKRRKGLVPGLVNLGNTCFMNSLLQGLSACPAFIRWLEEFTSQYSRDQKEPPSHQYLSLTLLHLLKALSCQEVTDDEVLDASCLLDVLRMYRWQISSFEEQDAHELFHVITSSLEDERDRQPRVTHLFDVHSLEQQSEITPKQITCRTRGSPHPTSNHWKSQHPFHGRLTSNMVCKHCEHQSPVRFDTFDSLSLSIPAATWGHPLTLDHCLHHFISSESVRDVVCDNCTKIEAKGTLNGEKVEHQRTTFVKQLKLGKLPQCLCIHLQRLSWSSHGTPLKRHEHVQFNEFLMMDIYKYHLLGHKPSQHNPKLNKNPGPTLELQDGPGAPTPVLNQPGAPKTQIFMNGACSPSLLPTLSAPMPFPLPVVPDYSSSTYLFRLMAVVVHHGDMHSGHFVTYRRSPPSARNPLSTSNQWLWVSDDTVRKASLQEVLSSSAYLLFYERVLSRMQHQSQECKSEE
assayEndpoint: IC50

Some compounds with recorded IC50:
compoundstring=O=C(Nc1ccc(S(=O)(=O)NC2COC2)cc1)[C@@H]1C[C@@H](c2ccccc2)CN1C(=O)c1ccc(F)cc1 endpointresult="1 to 10 µM"
compoundstring=COC[C@H](NC(=O)c1ccc(F)cc1)C(=O)Nc1ccc(S(=O)(=O)NC(C)(C)CN2CCOCC2)cc1 endpointresult="1 to 10 µM"
compoundstring=COc1cc(NC(=O)[C@H](CC2CCOCC2)NC(=O)c2ccc(F)cc2)cnc1S(=O)(=O)NC1CCC1 endpointresult="0.05 to 1 µM"
compoundstring=O=C(N[C@@H](Cc1ccccc1)C(=O)Nc1ccc(S(=O)(=O)NCc2ccn[nH]2)cc1)c1ccc(F)cc1 endpointresult="0.05 to 1 µM"
compoundstring=COc1cc(NC(=O)[C@H](CC2CCNCC2)NC(=O)c2ccc(F)cc2)ccc1S(=O)(=O)NC1COC1 endpointresult="0.05 to 1 µM"

Give the reported IC50 for this compound. `O=C(N[C@@H](CCO)C(=O)Nc1ccc(S(=O)(=O)NC2COC2)cc1)c1ccc(F)cc1`
1 to 10 µM

Supply measured IC50 of `O=C(N[C@@H](CC1CCOCC1)C(=O)Nc1ccc(S(=O)(=O)NC2CCOCC2)cc1)c1ccc(F)cc1` in your reply.
0.05 to 1 µM

Give the value of IC50 reported for the following: `CN(C)CC[C@H](NC(=O)c1ccc(F)cc1)C(=O)Nc1ccc(S(=O)(=O)NC(C)(C)C)cc1`
0.05 to 1 µM

Using known records, supply IC50 for `CC(C)(C)NS(=O)(=O)c1ccc(NC(=O)[C@H](CCO)NC(=O)c2ccc(F)cc2)cc1`
0.05 to 1 µM

Give reported IC50 value for `CN(C(=O)c1ccc(F)cc1)[C@@H](Cc1ccccc1)C(=O)Nc1ccc(S(=O)(=O)NCc2ccnn2C)cc1`
1 to 10 µM

// fetch IC50 given entry `COCCC(C)(C)NS(=O)(=O)c1ccc(NC(=O)[C@H](CC(C)C)NC(=O)c2ccc(F)cc2)cc1`
0.05 to 1 µM

Supply recorded IC50 for `CC(C)(C)NS(=O)(=O)c1ccc(NC(=O)[C@@H](NC(=O)c2ccc(F)cc2)C(C)(C)c2ccccc2)cc1` here.
0.05 to 1 µM

The values you see were collected from patent US20250162989A1.
